// values below are reported pIC50
Molecular target: ENL YEATS domain (Homo sapiens)
Sequence (Q03111 1-138 limits assumed): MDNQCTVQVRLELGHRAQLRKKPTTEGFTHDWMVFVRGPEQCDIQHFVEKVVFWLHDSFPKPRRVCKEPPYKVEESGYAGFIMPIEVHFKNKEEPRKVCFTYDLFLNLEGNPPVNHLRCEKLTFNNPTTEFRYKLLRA
pIC50: −log10 of the molar value.

compound.string: COCc1n[nH]cc1-c1ccc(C(=O)Nc2cc3[nH]c([C@H]4CCCN4C)cc3cn2)cc1
target.or.test.system: ENL YEATS domain (Homo sapiens)
pIC50: 6.75
--
compound.string: CN1CCCC[C@@H]1c1cc2cnc(NC(=O)c3ccc(-c4cn[nH]c4)cc3)cc2[nH]1
target.or.test.system: ENL YEATS domain (Homo sapiens)
pIC50: 7.19

###

system: MV4:11 (MLL-AF4 MLL) cells; assay: Cell viability assay (CellTiter-Glo), 12 days; format: cell-based; conditions: Homo sapiens, 288 h, MV4:11 cells, cells split on days 4 and 8, CellTiter-Glo readout, read-out: MV4:11, 12 Day IC50
// values below are reported IC50

molecule: CN1CCC[C@@H]1c1cc2cnc(NC(=O)c3ccc(-c4cn[nH]c4)cn3)cc2[nH]1 [Example 2]
target.or.test.system: MV4:11 (MLL-AF4 MLL) cells
IC50, µM: 0.019

molecule: CN1CCC[C@@H]1c1cc2cnc(NC(=O)c3ccc(-c4cn[nH]c4)cc3)cc2[nH]1 [Example 5]
target.or.test.system: MV4:11 (MLL-AF4 MLL) cells
IC50, µM: 0.079

molecule: CN1CCC[C@H]1c1cc2cnc(NC(=O)c3ccc(-c4cn[nH]c4)cn3)cc2[nH]1 [Example 3]
target.or.test.system: MV4:11 (MLL-AF4 MLL) cells
IC50, µM: 0.083

molecule: CN1CCC[C@@H]1c1cc2cnc(NC(=O)c3ccc(-c4cn[nH]c4)cc3F)cc2[nH]1 [Example 4]
target.or.test.system: MV4:11 (MLL-AF4 MLL) cells
IC50, µM: 0.119

molecule: COCc1n[nH]cc1-c1ccc(C(=O)Nc2cc3[nH]c([C@H]4CCCN4C)cc3cn2)cc1 [Example 8]
target.or.test.system: MV4:11 (MLL-AF4 MLL) cells
IC50, µM: 0.357

molecule: CN1CCCC[C@@H]1c1cc2cnc(NC(=O)c3ccc(-c4cn[nH]c4)cn3)cc2[nH]1 [Example 7]
target.or.test.system: MV4:11 (MLL-AF4 MLL) cells
IC50, µM: 0.036

molecule: Cc1cc2cnc(NC(=O)c3ccc(-c4cn[nH]c4)cn3)cc2[nH]1 [Example 1]
target.or.test.system: MV4:11 (MLL-AF4 MLL) cells
IC50, µM: 0.04

molecule: CN1CCC[C@@H]1c1cc2cnc(NC(=O)c3ccc(-c4c[nH]nc4F)cc3)cc2[nH]1 [Example 9]
target.or.test.system: MV4:11 (MLL-AF4 MLL) cells
IC50, µM: 0.176

molecule: CN1CCCC[C@@H]1c1cc2cnc(NC(=O)c3ccc(-c4cn[nH]c4)cc3)cc2[nH]1 [Example 6]
target.or.test.system: MV4:11 (MLL-AF4 MLL) cells
IC50, µM: 0.138
